These entries and their values trace back to patent US11286268B1.

Reported IC50 values for a set of compounds
assay.target: recombinant eIF4E (Homo sapiens (Human))
run.description: Fluorescence polarization competition assay for eIF4E binding potency
conditions: fluorescence polarization competition, 75 nM recombinant eIF4E, 20 nM EDA-m7GDP-ATTO-550; IC50 class; read-out: elF4E FP

Examples from the recorded data:
IC50 measured on Cc1nc2cc(F)c(S(=O)(=O)N(C)C)c(C#N)c2c(=O)n1CCOc1ccc(Cl)cc1-c1ccnc2c(C(=O)O)csc12 [compound 281] = < 0.05 µM

IC50 measured on Cc1cc(-c2cc(Cl)ccc2OCCn2c(C)nc3cc(C(F)(F)F)c(C#N)nc3c2=O)c2scc(C(=O)O)c2n1 [compound 785] = < 0.05 µM

IC50 measured on CCCc1ncc2nc(C)n(CCOc3ccc(Cl)cc3-c3cc(C)nc4c(C(=O)O)csc34)c(=O)c2c1C#N [compound 1063] = < 0.05 µM

IC50 measured on COc1cc(F)c(C(=O)O)cc1-c1cc(Cl)ccc1OCCn1cnc2cnc(C#N)cc2c1=O [compound 97] = > 1 µM

IC50 measured on Cc1nc2cc(S(C)(=O)=O)c(Cl)c(C#N)c2c(=O)n1CCOc1ccc(Cl)cc1-c1ccnc2c(C(=O)O)csc12 [compound 277] = < 0.05 µM

***
IC50 measured on Cc1nc2cc(OC(F)(F)F)cc(C#N)c2c(=O)n1CCOc1ccc(Cl)cc1-c1ccnc2c(C(=O)O)csc12 [compound 456] = < 0.05 µM

IC50 measured on Cc1nc2cc(C(F)(F)F)cc(C#N)c2c(=O)n1CCOc1ccc(Cl)cc1-c1cc(C(=O)O)nc2ccsc12 [compound 201] = 0.05 to 1 µM

IC50 measured on Cc1nc2cc(C#N)cc(C#N)c2c(=O)n1CCOc1ccc(Cl)cc1-c1ccnc2c(C(=O)O)csc12 [compound 212] = < 0.05 µM

---

assay.target: recombinant eIF4E (Homo sapiens (Human), UniProt P06730)
Sequence (P06730 whole entry): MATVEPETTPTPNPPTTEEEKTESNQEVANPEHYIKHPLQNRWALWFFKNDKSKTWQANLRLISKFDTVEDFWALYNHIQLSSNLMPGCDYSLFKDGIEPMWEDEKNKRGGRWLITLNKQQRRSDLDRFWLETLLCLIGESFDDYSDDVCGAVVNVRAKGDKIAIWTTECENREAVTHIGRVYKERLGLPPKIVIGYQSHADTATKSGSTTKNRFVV
run.description: Fluorescence polarization competition assay for eIF4E binding potency
conditions: fluorescence polarization competition, 75 nM recombinant eIF4E, 20 nM EDA-m7GDP-ATTO-550; IC50 class; read-out: elF4E FP
Experimental: Compounds were screened for eIF4E binding potency using a fluorescence polarization competition assay. All binding reactions were performed in fluorescence polarization buffer (FPB) containing 20 mM Tris pH 7.5, 100 mM NaCl, 1 mM DTT, and 0.02% Tween-20. Final binding reactions contained 75 nM recombinant eIF4E (Beryllium, custom order), 20 nM EDA-m^7GDP-ATTO-550 (Jena Bioscience, NU-827-550) and varying concentrations of the inhibitory compound of interest. […]
Reported IC50 values for a set of compounds

Examples from the recorded data:
IC50 measured on O=C(O)c1cccc(-c2cc(Cl)ccc2OCCn2cnc3nnccc3c2=O)c1 = 50 to 1000 nM

IC50 measured on Cc1cc(-c2cc(Cl)ccc2OCCn2c(C)nc3cnc(C(F)F)c(C#N)c3c2=O)c2scc(C(=O)O)c2n1 = < 50 nM

IC50 measured on Cc1nc2cc(Cl)c(S(C)(=O)=O)c(C#N)c2c(=O)n1CCOc1ccc(Cl)cc1-c1ccnc2c(C(=O)O)csc12 = 50 to 1000 nM

IC50 measured on Cc1nc2cc(C(F)(F)F)c(OCCN3CCNCC3)c(C#N)c2c(=O)n1CCOc1ccc(Cl)cc1-c1ccnc2ccsc12 = < 50 nM

IC50 measured on Cc1nc2cc(C(F)(F)F)c(N3CCN(C)CC3)c(C#N)c2c(=O)n1CCOc1ccc(Cl)cc1-c1ccnc2c(-c3nn[nH]n3)csc12 = < 50 nM

***
IC50 measured on Cc1cc(-c2cc(Cl)ccc2OCCn2c(C)nc3cc(Cl)c(N(C)C)c(C#N)c3c2=O)c2scc(C(=O)O)c2n1 = < 50 nM

IC50 measured on Cc1c(F)c2cc(C(F)(F)F)cc(C#N)c2c(=O)n1CCOc1ccc(Cl)cc1-c1ccnc2c(C(=O)O)csc12 = < 50 nM

IC50 measured on N#Cc1cncc2ncn(CCOc3ccc(Cl)cc3-c3ccc(C(=O)O)c(CCCCC(O)CO)c3)c(=O)c12 (centres unmarked) = 50 to 1000 nM

---

assay.target: recombinant eIF4E (Homo sapiens (Human))
run.description: Fluorescence polarization competition assay for eIF4E binding potency
conditions: fluorescence polarization competition, 75 nM recombinant eIF4E, 20 nM EDA-m7GDP-ATTO-550; IC50 class; read-out: elF4E FP
Reported IC50 values for a set of compounds

Examples from the recorded data:
IC50 measured on Cc1c(C(F)(F)F)cc2nc(C)n(CCOc3ccc(Cl)cc3-c3cn(C)c(=O)c4c(C(=O)O)csc34)c(=O)c2c1C#N = < 50 nM

IC50 measured on COCc1ncc(C#N)c2c(=O)n(CCOc3ccc(Cl)cc3-c3ccc(C)c4c(C(=O)O)csc34)c(C)nc12 = < 50 nM

IC50 measured on Cc1nc2cc(C(F)(F)F)cc(C#N)c2c(=O)n1CCOc1ccc(Cl)cc1-c1ccnc2c(C(=O)O)c(C(F)(F)F)sc12 = 50 to 1000 nM

***
IC50 measured on Cc1ccc(N(C)c2c(Cl)cc3nc(C)n(CCOc4ccc(Cl)cc4-c4cc(C)nc5c(C(=O)O)csc45)c(=O)c3c2C#N)cn1 = < 50 nM

IC50 measured on Cc1cc(C)nc(-c2c(C(F)(F)F)cc3nc(C)n(CCOc4ccc(Cl)cc4-c4cc(C)nc5c(C(=O)O)csc45)c(=O)c3c2C#N)n1 = 50 to 1000 nM

IC50 measured on Cc1nc2c(OC(F)F)ccc(C#N)c2c(=O)n1CCOc1ccc(Cl)cc1-c1ccnc2c(C(=O)O)csc12 = < 50 nM

---

assay.target: recombinant eIF4E (Homo sapiens (Human), UniProt P06730)
run.description: Fluorescence polarization competition assay for eIF4E binding potency
conditions: inhibition of eIF4E/EDA-m7GDP-ATTO-550 binding; calculated IC50 values, Table 4B; read-out: IC50
measured.endpoint: IC50 (nM)

Examples from the recorded data:
IC50 measured on Cc1cc(-c2cc(Cl)ccc2OCCn2c(C)nc3cc(C(F)(F)F)c(-c4ncccc4C)c(C#N)c3c2=O)c2scc(C(=O)O)c2n1 = 26.6

IC50 measured on Cc1nc2cnc(N(C)C3CCN(CCC(C)(F)F)CC3)c(C#N)c2c(=O)n1CC#Cc1ccc(Cl)cc1-c1ccnc2c(C(=O)NS(C)(=O)=O)csc12 = 15.8

IC50 measured on Cc1nc2cnc(N3CCN(CCF)C(C)(C)C3)c(C#N)c2c(=O)n1CCOc1ccc(Cl)cc1-c1ccnc2c(C(=O)O)csc12 = 26.2

P: COC(=O)c1csc2c(-c3cc(Cl)ccc3OCCn3c(C)nc4cc(C(F)(F)F)c(N5CCN(C)CC5)c(C#N)c4c3=O)cc(C)nc12
Q: Cc1nc2cnc(N(C)C3CCN(CC(F)(F)F)CC3)c(C#N)c2c(=O)n1CC#Cc1ccc(Cl)cc1-c1ccnc2c(C(=O)NS(=O)(=O)C3CC(F)(F)C3)csc12
R: Cc1nc2cnc(CCN(C)CC(F)F)c(C#N)c2c(=O)n1CCOc1ccc(Cl)cc1-c1ccnc2c(C(=O)O)csc12
S: Cc1cc(-c2cc(Cl)ccc2OCCn2c(C)nc3cc(C(F)(F)F)c(-c4cnc(Cl)cc4F)c(C#N)c3c2=O)c2scc(C(=O)O)c2n1
Write the entries in order, lowest recorded IC50 first. In plain terms: list the labels in the order you were asked to.
S, Q, R, P

---

Reported IC50 values for a set of compounds
assay.target: recombinant eIF4E (Homo sapiens (Human), UniProt P06730)
run.description: Fluorescence polarization competition assay for eIF4E binding potency
conditions: fluorescence polarization competition, 75 nM recombinant eIF4E, 20 nM EDA-m7GDP-ATTO-550; IC50 class; read-out: elF4E FP

Examples from the recorded data:
IC50 measured on Cc1nc2cc(Cl)cc(C#N)c2c(=O)n1CCOc1ccc(Cl)cc1-c1ccnc2c(C(=O)O)csc12 = < 50 nM

IC50 measured on Cc1cc(-c2cc(Cl)ccc2OCCn2c(C)nc3c(F)cc(CCN(C)C)c(C#N)c3c2=O)c2scc(C(=O)O)c2n1 = < 50 nM

IC50 measured on CNC(=O)c1cc2c(=O)n(CCOc3ccc(Cl)cc3-c3cccc(C(=O)O)c3)cnc2cn1 = 50 to 1000 nM

From here, focus on the item given below.
IC50 measured on Cc1c(C(F)F)c2cc(C(F)(F)F)cc(C#N)c2c(=O)n1CCOc1ccc(Cl)cc1-c1ccnc2c(C(=O)O)csc12 = < 50 nM

---

Reported pIC50 values for a set of compounds
assay.target: recombinant eIF4E (Homo sapiens (Human))
run.description: Fluorescence polarization competition assay for eIF4E binding potency
conditions: fluorescence polarization competition, 75 nM recombinant eIF4E, 20 nM EDA-m7GDP-ATTO-550; IC50 class; read-out: elF4E FP
pIC50: −log10 of the molar value.

Examples from the recorded data:
Fill in: recombinant eIF4E (Homo sapiens (Human)) pIC50 for Cc1nc2cnc(N(C)C3CCN(C4CC(F)(F)C4)CC3)c(C#N)c2c(=O)n1CC#Cc1ccc(Cl)cc1-c1ccnc2c(C(=O)O)csc12 = > 7.30

Fill in: recombinant eIF4E (Homo sapiens (Human)) pIC50 for Cc1nc2cc(C(F)(F)F)c(-c3cccnc3)c(C#N)c2c(=O)n1CCOc1ccc(Cl)cc1-c1cccc(C(=O)O)c1 = > 7.30

Fill in: recombinant eIF4E (Homo sapiens (Human)) pIC50 for Cc1nc2cnc(N(C)C3CCN(CC(C)(F)F)CC3)c(C#N)c2c(=O)n1CC#Cc1ccc(Cl)cc1-c1ccnc2c(C(=O)NS(=O)(=O)c3ccncc3)csc12 = > 7.30

Fill in: recombinant eIF4E (Homo sapiens (Human)) pIC50 for CCc1cc(-c2cc(Cl)ccc2OCCn2c(C)nc3cc(C(F)(F)F)c(-c4cccnc4)c(C#N)c3c2=O)c2scc(C(=O)O)c2n1 = > 7.30

Fill in: recombinant eIF4E (Homo sapiens (Human)) pIC50 for Cc1cc(-c2c(C(F)(F)F)cc3nc(C)n(CCOc4ccc(Cl)cc4-c4cc(C)nc5c(C(=O)O)csc45)c(=O)c3c2C#N)cnn1 = > 7.30

From here, focus on the item given below.
Fill in: recombinant eIF4E (Homo sapiens (Human)) pIC50 for Cc1cc(-c2cc(Cl)ccc2OCCn2c(C)nc3cc(C(F)(F)F)c(N4CCN(C)CC4)c(C#N)c3c2=O)c2sccc2n1 = > 7.30
